Source of measurements: PubChem BioAssay (Tox21)

Assay: qHTS assay to identify small molecule antagonists of the estrogen receptor beta (ER-beta) signaling pathway - cell viability counter screen (AID 1259382);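 note: HEK293T cells carrying ER-beta-UAS-bla reporter stimulated with estradiol; nearly all actives have a fitted effect of over 55% in size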
Details: ER-beta-UAS-bla HEK293T viability, CellTiter-Glo luminescence, 16 h; series mostly up to 92.4 µM
Inconclusive results are not listed. Active and inactive are the calls of the source. Calls come from the whole dose curve; as a rule, active = well fitted cell-killing curve with a large enough effect in the repeat runs; inconclusive = weak or mixed curves; inactive = flat fitted curve, though single readings scatter.
PROPERTY NAME: outcome

[[record]]
molecule = "NC(=O)C1CO1 (stereo not drawn)"
property_name = "outcome"
reported_result = "inactive"

[[record]]
molecule = "Cc1cc(C)c(O)c(C(C)(C)C)c1"
property_name = "outcome"
reported_result = "inactive"

[[record]]
molecule = "C=C(C)CCO"
property_name = "outcome"
reported_result = "inactive"

